System: 22Rv1 cells
Assay: Cell-based assay, anti-proliferative activity (Cell Counting Kit-8, 72 hours)
Set-up: species or system human
Details: Homo sapiens, 22Rv1, 72 h, read-out: IC50 (μM) (22Rvl)
Where a name gives a salt, the structure may show the parent alone.
The entries below come with measured IC50 values attached.
Readout name: IC50 (µM)

>>> df
                                   compound  data_value
0  CNC1CCN(c2ccc(Nc3c(C(C)=O)cnc4ccc(-c5cc(Cl)c(O)c(Cl)c5)nc34)cn2)C1 (stereo not drawn) [Example 53, trihydrochloride]       0.078
1  CC(=O)c1cnc2ccc(-c3ccc4[nH]cnc4c3)nc2c1N[C@H]1CC[C@H](CN(C)C)CC1 [Example 55, trihydrochloride]         0.3
2  CC(=O)c1cnc2ccc(-c3cc(F)c(O)c(Cl)c3)nc2c1Nc1ccc(N2CCC[C@H](N)C2)nc1 [Example 72, trihydrochloride]       0.014

----------
Tested on: 22Rv1 cells
Test: Cell-based assay, anti-proliferative activity (Cell Counting Kit-8, 72 hours)
Set-up: species or system human
Details: Homo sapiens, 22Rv1, 72 h, read-out: IC50 (μM) (22Rvl)
Where a name gives a salt, the structure may show the parent alone.
Could you mark each record y if its IC50 falls strictly under 0.02 µM, and n if it equals or exceeds it?

>>> print(df.to_string())
                                   molecule  discrete_label
0  CC(=O)c1cnc2ccc(-c3cc(Cl)c(O)c(Cl)c3)nc2c1Nc1ccc(CCN(C)C)cc1 [Example 29, dihydrochloride]               n
1  CC(=O)c1cnc2ccc(-c3cc(F)c(O)c(Cl)c3)nc2c1Nc1cccc(CCN2CCCC2)c1 [Example 20, dihydrochloride]               n
2  CN(C)C[C@H]1CC[C@H](Nc2c(S(C)(=O)=O)cnc3ccc(-c4cc(Cl)c(O)c(Cl)c4)nc23)CC1 [Example 12, dihydrochloride]               y
3  CCC(=O)c1cnc2ccc(-c3cc(Cl)c(O)c(Cl)c3)nc2c1N[C@H]1CC[C@H](CN(C)C)CC1 [Example 206, dihydrochloride]               n
4  CN(C)[C@H]1CC[C@H](Nc2c(C(=O)CO)cnc3ccc(-c4cc(Cl)c(O)c(Cl)c4)nc23)CC1 [Example 203, dihydrochloride]               y
5  CC(=O)c1cnc2ccc(-c3cc(F)c(O)c(Cl)c3)nc2c1N[C@H]1CC[C@H](CN2CCCC2)CC1 [Example 62, dihydrochloride]               y

----------
The entries below come with measured IC50 values attached.
Target: MELK (Homo sapiens, UniProt Q14680)
Sequence (Q14680 whole entry, looked up): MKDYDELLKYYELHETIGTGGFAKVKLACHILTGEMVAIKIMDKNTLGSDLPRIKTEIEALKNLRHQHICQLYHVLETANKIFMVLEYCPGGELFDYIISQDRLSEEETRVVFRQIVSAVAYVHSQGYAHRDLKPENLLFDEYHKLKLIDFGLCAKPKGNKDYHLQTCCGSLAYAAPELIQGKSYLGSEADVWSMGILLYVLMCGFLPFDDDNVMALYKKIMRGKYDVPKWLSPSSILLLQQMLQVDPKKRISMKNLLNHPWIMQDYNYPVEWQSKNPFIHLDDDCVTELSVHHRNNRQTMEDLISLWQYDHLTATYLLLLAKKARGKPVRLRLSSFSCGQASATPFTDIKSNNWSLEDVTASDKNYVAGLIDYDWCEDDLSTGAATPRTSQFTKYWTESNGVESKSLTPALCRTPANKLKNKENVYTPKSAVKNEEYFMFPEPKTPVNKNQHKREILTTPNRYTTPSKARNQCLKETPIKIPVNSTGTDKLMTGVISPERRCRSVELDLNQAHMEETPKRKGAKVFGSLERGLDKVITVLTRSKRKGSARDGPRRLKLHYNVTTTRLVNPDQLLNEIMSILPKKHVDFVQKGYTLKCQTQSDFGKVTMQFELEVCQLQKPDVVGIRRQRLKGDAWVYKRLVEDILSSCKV
Assay: Kinase assay (IMAP fluorescence polarization, FITC-labeled histone H3 peptide)
Format: biochemical
Details: 50 micro-M ATP
Where a name gives a salt, the structure may show the parent alone.
Readout name: IC50

>>> print(df.to_string())
                                    molecule  data_value
 0  N[C@H]1CCCN(c2ccc(Nc3c(C(=O)C4CC4)cnc4ccc(-c5cc(F)c(O)c(Cl)c5)nc34)cn2)C1    0.001 µM
 1  CC(=O)c1cnc2ccc(-c3ccncc3)nc2c1N[C@H]1CC[C@H](CN(C)C)CC1 [Example 56, trihydrochloride]    0.016 µM
 2  CC(=O)c1cnc2ccc(-c3cnc4[nH]ccc4c3)nc2c1N[C@H]1CC[C@H](CN(C)C)CC1 [Example 82, trihydrochloride]    0.013 µM
 3  CC(=O)c1cnc2ccc(-c3cc(Cl)c(O)c(Cl)c3)nc2c1N[C@H]1CC[C@H](N)CC1 [Example 66, dihydrochloride]   0.0018 µM
 4  CC(=O)c1cnc2ccc(-c3cc(F)c(O)c(Cl)c3)nc2c1N[C@H]1CC[C@H](CCN(C)C)CC1 [Example 10, dihydrochloride]   0.0014 µM
 5  CCC(=O)c1cnc2ccc(-c3cc(F)c(O)c(Cl)c3)nc2c1Nc1ccc(N2CCC[C@H](N)C2)nc1 [Example 208, trihydrochloride]   0.0026 µM
 6  CC(=O)c1cnc2ccc(-c3cc(F)c(O)c(Cl)c3)nc2c1N[C@H]1CC[C@H](CN(C)CCO)CC1 [Example 49, dihydrochloride]    0.001 µM
 7  CC(=O)c1cnc2ccc(-c3cc(Cl)c(O)c(Cl)c3)nc2c1Nc1cnc(N2CCC(N)C2)nc1 (centres unmarked) [Example 41, trihydrochloride]   0.0017 µM
 8  CN(C)Cc1ccc(Nc2c(S(C)(=O)=O)cnc3ccc(-c4cc(F)c(O)c(Cl)c4)nc23)cc1 [Example 17, dihydrochloride]   0.0081 µM
 9  CC(=O)c1cnc2ccc(-c3cc(F)c(O)c(Cl)c3)nc2c1Nc1ccc(OCCN(C)C)nc1 [Example 22, dihydrochloride]    0.015 µM
10  CN(C)C[C@H]1CC[C@H](Nc2c(C(=O)C3CC3)cnc3ccc(-c4cc(F)c(O)c(Cl)c4)nc23)CC1 [Example 5, dihydrochloride]   0.0008 µM
11  CC(=O)c1cnc2ccc(-c3cc(F)c(O)c(Cl)c3)nc2c1N[C@H]1CC[C@H](N(C)C)CC1 [Example 3, dihydrochloride]   0.0012 µM
12  CC(C)C(=O)c1cnc2ccc(-c3cc(Cl)c(O)c(Cl)c3)nc2c1N[C@H]1CC[C@H](CN(C)C)CC1 [Example 216, dihydrochloride]   0.0019 µM
13  CC(=O)c1cnc2ccc(-c3ccc4[nH]cnc4c3)nc2c1N[C@H]1CC[C@H](CN(C)C)CC1 [Example 55, trihydrochloride]    0.017 µM
14  CC(=O)c1cnc2ccc(-c3cc(F)c(O)c(Cl)c3)nc2c1Nc1ccc(N2CCCC(N)C2)nc1 (centres unmarked) [Example 65, trihydrochloride]   0.0031 µM
15  COc1cc(-c2ccc3ncc(S(C)(=O)=O)c(N[C@H]4CC[C@H](CN(C)C)CC4)c3n2)cc(Cl)c1O   0.0009 µM
16  CC(=O)c1cnc2ccc(-c3cc(Cl)c(O)c(Cl)c3)nc2c1N[C@H]1CC[C@H](NC(=O)[C@@H]2CCCN2)CC1 [Example 75, dihydrochloride]    0.001 µM

----------
Test system: HT1197 cells
Assay: Cell-based assay, anti-proliferative activity, MELK-negative control (Cell Counting Kit-8, 72 hours)
Set-up: species or system human
Conditions: Homo sapiens, HT1197, 72 h, read-out: IC50 (μM) (HTll97)
Protocol: 100 micro-L of cell suspension was seeded onto 96-well microtiter plate (ViewPlate-96FTC, PerkinElmer). The initial cell concentration of 22Rv1, T47D, A549, DU4475, and HT1197 were 3,000 cells/well, 2,000 cells/well and 2,500 cells/well, respectively. Cellular growth was determined using Cell Counting Kit-8 (DOJINDO) at 72 hours after the exposure of the candidate inhibitors. […] Accurate IC50 values were calculated as described previously.
Structures can show the parent of a compound that is named as a salt.
Could you mark each record t if its IC50 falls strictly under 1 µM, and f if it equals or exceeds it?

>>> print(df.to_string())
                                   compound  discrete_label
0  CN(C)C[C@H]1CC[C@H](Nc2c(S(C)(=O)=O)cnc3ccc(-c4cc(Cl)c(O)c(Cl)c4)nc23)CC1 [Example 12, dihydrochloride]               t
1  CCC(=O)c1cnc2ccc(-c3cc(F)c(O)c(Cl)c3)nc2c1N[C@H]1CC[C@H](CN(C)C)CC1 [Example 205, dihydrochloride]               t
2  N[C@H]1CCCN(c2ccc(Nc3c(C(=O)C4CCC4)cnc4ccc(-c5cc(F)c(O)c(Cl)c5)nc34)cn2)C1 [Example 210, dihydrochloride]               f
3  CC(=O)c1cnc2ccc(-c3cc(Cl)c(O)c(Cl)c3)nc2c1N[C@H]1CC[C@H](CN(C)CCO)CC1 [Example 48, dihydrochloride]               t
4  CCC(=O)c1cnc2ccc(-c3cc(Cl)c(O)c(Cl)c3)nc2c1N[C@H]1CC[C@H](CN(C)C)CC1 [Example 206, dihydrochloride]               f

----------
Tested on: A549 cells
Assay: Cell-based assay, anti-proliferative activity (Cell Counting Kit-8, 72 hours)
Design: species or system human
Settings: Homo sapiens, A549, 72 h, read-out: IC50 (μM) (A549)
Where a name gives a salt, the structure may show the parent alone.

Molecule	Target	Units	IC50
CC(=O)c1cnc2ccc(-c3cc(F)c(O)c(Cl)c3)nc2c1N[C@H]1CC[C@H](NC(=O)C(N)C(C)C)CC1 (stereo partly drawn) [Example 69, dihydrochloride]	A549 cells	µM	0.064
CNC1CCN(c2ccc(Nc3c(C(C)=O)cnc4ccc(-c5cc(Cl)c(O)c(Cl)c5)nc34)cn2)C1 (stereo not drawn) [Example 53, trihydrochloride]	A549 cells	µM	0.2
CC(=O)c1cnc2ccc(-c3cc(Cl)c(O)c(Cl)c3)nc2c1NCC1CCN(C)CC1 [Example 27, dihydrochloride]	A549 cells	µM	0.11
CC(=O)c1cnc2ccc(-c3cc(Cl)c(O)c(Cl)c3)nc2c1N[C@H]1CC[C@H](CN2CCOCC2)CC1	A549 cells	µM	0.02
CC(=O)c1cnc2ccc(-c3cc(Cl)c(O)c(Cl)c3)nc2c1N[C@H]1CC[C@H](CN2CCN(C)CC2)CC1 [Example 63, trihydrochloride]	A549 cells	µM	0.02
CC(=O)c1cnc2ccc(-c3cc(Cl)c(O)c(Cl)c3)nc2c1Nc1ccc(NCCN(C)C)nc1 [Example 38, trihydrochloride]	A549 cells	µM	0.26
CC(=O)c1cnc2ccc(-c3cc(Cl)c(O)c(Cl)c3)nc2c1N[C@H]1CC[C@H](CN(C)CCO)CC1 [Example 48, dihydrochloride]	A549 cells	µM	0.02
CC(=O)c1cnc2ccc(-c3cc(Cl)c(O)c(Cl)c3)nc2c1N[C@H]1CC[C@H](CO)CC1 [Example 43, hydrochloride]	A549 cells	µM	0.057
CC(=O)c1cnc2ccc(-c3cc(Cl)c(O)c(Cl)c3)nc2c1N[C@H]1CC[C@H](CCN(C)C)CC1 [Example 9, dihydrochloride]	A549 cells	µM	0.013
CN(C)[C@H]1CC[C@H](Nc2c(S(C)(=O)=O)cnc3ccc(-c4cc(Cl)c(O)c(Cl)c4)nc23)CC1 [Example 15, dihydrochloride]	A549 cells	µM	0.092
CN(C)C[C@H]1CC[C@H](Nc2c(C(=O)C3CC3)cnc3ccc(-c4cc(Cl)c(O)c(Cl)c4)nc23)CC1 [Example 4, dihydrochloride]	A549 cells	µM	0.0062
CC(=O)c1cnc2ccc(-c3cc(F)c(O)c(Cl)c3)nc2c1Nc1ccc(CN2CCN(C)CC2)cc1 [Example 35, trihydrochloride]	A549 cells	µM	0.41
CC(=O)c1cnc2ccc(-c3ccc(O)nc3)nc2c1N[C@H]1CC[C@H](CN(C)C)CC1 [Example 86, dihydrochloride]	A549 cells	µM	8
N[C@H]1CCCN(c2ccc(Nc3c(C(=O)C4CC4)cnc4ccc(-c5cc(Cl)c(O)c(Cl)c5)nc34)cn2)C1 [Example 40, trihydrochloride]	A549 cells	µM	0.29
CN(C)CCOc1ccc(Nc2c(S(C)(=O)=O)cnc3ccc(-c4cc(F)c(O)c(Cl)c4)nc23)cn1 [Example 25, dihydrochloride]	A549 cells	µM	5.9
CC(=O)c1cnc2ccc(-c3cc(Cl)c(O)c(Cl)c3)nc2c1Nc1ccc(N2CCC[C@@H](N)C2)nc1 [Example 95, trihydrochloride]	A549 cells	µM	0.088
CC(=O)c1cnc2ccc(-c3cc(Cl)c(O)c(Cl)c3)nc2c1N[C@H]1CC[C@H](NC(=O)C(N)C(C)C)CC1 (stereo partly drawn) [Example 79, dihydrochloride]	A549 cells	µM	0.11
CC(=O)c1cnc2ccc(-c3cc(Cl)c(O)c(Cl)c3)nc2c1N[C@H]1CC[C@H](NC(=O)C(C)N)CC1 (stereo partly drawn) [Example 73, dihydrochloride]	A549 cells	µM	0.18
